Data credit: the Kinase Knowledgebase extract (Sharma et al. 2016)

As an illustration, consider measured IC50 for molecules on MAPK14 (human).

The cases that follow already have their IC50 on record.
smi=O=C(c1sc2c(ccc(=O)n2-c2ccc(F)cc2)c1Nc1ccc(F)cc1F)N1CCC[C@@H]1CO recorded_metric=IC50 val="< 1000 nM"
smi=NC[C@H]1CCCN1C(=O)c1sc2c(ccc(=O)n2-c2ccccc2)c1Nc1ccc(F)cc1F recorded_metric=IC50 val="< 1000 nM"
smi=O=c1ccc2c(Nc3ccc(F)cc3F)c(S(=O)(=O)N3CCC[C@@H]3CO)sc2n1-c1ccccc1 recorded_metric=IC50 val="< 1000 nM"

Reported IC50, molecule Cc1ccc(-n2c(=O)ccc3c(Nc4ccc(F)c(C)c4)c(C(=O)N4CCC[C@@H]4CO)sc32)cc1 : ____
< 1000 nM

Note, next up: Cc1cc(Nc2c(C(=O)N3CCC[C@H]3CO)sc3c2ccc(=O)n3-c2ccccc2)ccc1F
< 1000 nM

Note, next up: Cc1cccc(-n2c(=O)ccc3c(Nc4ccc(F)c(C)c4)c(C(=O)N4CCC[C@@H]4CO)sc32)c1
< 1000 nM

Note, next up: Cc1ccc(-n2c(=O)ccc3c(Nc4ccc(F)c(C)c4)c(C(=O)N4CC[C@H](O)C4)sc32)cc1
< 1000 nM

Note, next up: Cc1cc(Nc2c(C(=O)N3CCC[C@@H]3CO)sc3c2ccc(=O)n3-c2ccc(Cl)cc2)ccc1F
< 1000 nM

Note, next up: O=C(c1sc2c(ccc(=O)n2-c2ccccc2)c1Nc1ccc(F)cc1F)N1C[C@@H](O)[C@H](O)C1
< 1000 nM

Note, next up: O=C(c1sc2c(ccc(=O)n2-c2ccccc2)c1Nc1ccc(F)c(Cl)c1)N1CCC[C@H]1CO
< 1000 nM

Note, next up: O=C(c1sc2c(ccc(=O)n2-c2ccccc2)c1Nc1ccc(F)cc1F)N1C[C@H](O)[C@@H](O)C1
< 1000 nM

Note, next up: Cc1ccc(-n2c(=O)ccc3c(Nc4ccc(F)cc4F)c(C(=O)N4CC[C@@H](O)C4)sc32)cc1
< 1000 nM

Note, next up: O=C(c1sc2c(ccc(=O)n2-c2ccccc2)c1Nc1ccccc1)N1CCC[C@H]1CO
< 1000 nM
